Tested on: HeLa Kyoto
Assay: solubility change mitosis vs G1/S (difference of NP-40 vs SDS log2 ratios) (log2 ratio difference); higher = more soluble in mitosis

{"Sequence Entry": "MNNLSFSELCCLFCCPPCPGKIASKLAFLPPDPTYTLMCDESGSRWTLHLSERADWQYSSREKDAIECFMTRTSKGNRIACMFVRCSPNAKYTLLFSHGNAVDLGQMSSFYIGLGSRINCNIFSYDYSGYGASSGKPTEKNLYADIEAAWLALRTRYGIRPENVIIYGQSIGTVPSVDLAARYESAAVILHSPLTSGMRVAFPDTKKTYCFDAFPNIDKISKITSPVLIIHGTEDEVIDFSHGLALFERCQRPVEPLWVEGAGHNDVELYGQYLERLKQFVSQELVNL [ABHD17B]", "solubility change mitosis (log2)": -0.163}
{"Sequence Entry": "MEPAVSEPMRDQVARTHLTEDTPKVNADIEKVNQNQAKRCTVIGGSGFLGQHMVEQLLARGYAVNVFDIQQGFDNPQVRFFLGDLCSRQDLYPALKGVNTVFHCASPPPSSNNKELFYRVNYIGTKNVIETCKEAGVQKLILTSSASVIFEGVDIKNGTEDLPYAMKPIDYYTETKILQERAVLGANDPEKNFLTTAIRPHGIFGPRDPQLVPILIEAARNGKMKFVIGNGKNLVDFTFVENVVHGHILAAEQLSRDSTLGGKAFHITNDEPIPFWTFLSRILTGLNYEAPKYHIPYWVAYYLALLLSLLVMVISPVIQLQPTFTPMRVALAGTFHYYSCERAKKAMGYQPLVTMDDAMERTVQSFRHLRRVK [NSDHL]", "solubility change mitosis (log2)": -0.127}

* * *

Test system: HeLa Kyoto
Assay: solubility change mitosis vs G1/S (difference of NP-40 vs SDS log2 ratios) (log2 ratio difference); higher = more soluble in mitosis
# reported solubility change mitosis (log2); entries follow
Measurement Type: solubility change mitosis (log2)

{"Sequence Entry": "MDSAGQDINLNSPNKGLLSDSMTDVPVDTGVAARTPAVEGLTEAEEEELRAELTKVEEEIVTLRQVLAAKERHCGELKRRLGLSTLGELKQNLSRSWHDVQVSSAYVKTSEKLGEWNEKVTQSDLYKKTQETLSQAGQKTSAALSTVGSAISRKLGDMRNSATFKSFEDRVGTIKSKVVGDRENGSDNLPSSAGSGDKPLSDPAPF [TPD52L2]", "Result": 0.6}
{"Sequence Entry": "MSTAAVPELKQISRVEAMRLGPGWSHSCHAMLYAANPGQLFGRIPMRFSVLMQMRFDGLLGFPGGFVDRRFWSLEDGLNRVLGLGLGCLRLTEADYLSSHLTEGPHRVVAHLYARQLTLEQLHAVEISAVHSRDHGLEVLGLVRVPLYTQKDRVGGFPNFLSNAFVSTAKCQLLFALKVLNMMPEEKLVEALAAATEKQKKALEKLLPASS [NUDT16L1]", "Result": 0.104}
{"Sequence Entry": "MGDREQLLQRARLAEQAERYDDMASAMKAVTELNEPLSNEDRNLLSVAYKNVVGARRSSWRVISSIEQKTMADGNEKKLEKVKAYREKIEKELETVCNDVLSLLDKFLIKNCNDFQYESKVFYLKMKGDYYRYLAEVASGEKKNSVVEASEAAYKEAFEISKEQMQPTHPIRLGLALNFSVFYYEIQNAPEQACLLAKQAFDDAIAELDTLNEDSYKDSTLIMQLLRDNLTLWTSDQQDEEAGEGN [YWHAH]", "Result": 0.0669}
{"Sequence Entry": "MASRWQNMGTSVRRRSLQHQEQLEDSKELQPVVSHQETSVGALGSLCRQFQRRLPLRAVNLNLRAGPSWKRLETPEPGQQGLQAAARSAKSALGAVSQRIQESCQSGTKWLVETQVKARRRKRGAQKGSGSPTHSLSQKSTRLSGAAPAHSAADPWEKEHHRLSVRMGSHAHPLRRSRREAAFRSPYSSTEPLCSPSESDSDLEPVGAGIQHLQKLSQELDEAIMAEERKQALSDRQGFILKDVYASP [FAM64A]", "Result": 0.481}
{"Sequence Entry": "MLVVEVANGRSLVWGAEAVQALRERLGVGGRTVGALPRGPRQNSRLGLPLLLMPEEARLLAEIGAVTLVSAPRPDSRHHSLALTSFKRQQEESFQEQSALAAEARETRRQELLEKITEGQAAKKQKLEQASGASSSQEAGSSQAAKEDETSDGQASGEQEEAGPSSSQAGPSNGVAPLPRSALLVQLATARPRPVKARPLDWRVQSKDWPHAGRPAHELRYSIYRDLWERGFFLSAAGKFGGDFLVYPGDPLRFHAHYIAQCWAPEDTIPLQDLVAAGRLGTSVRKTLLLCSPQPDGKVVYTSLQWASLQ [TSEN34]", "Result": -0.159}
{"Sequence Entry": "MENSQLCKLFIGGLNVQTSESGLRGHFEAFGTLTDCVVVVNPQTKRSRCFGFVTYSNVEEADAAMAASPHAVDGNTVELKRAVSREDSARPGAHAKVKKLFVGGLKGDVAEGDLIEHFSQFGTVEKAEIIADKQSGKKRGFGFVYFQNHDAADKAAVVKFHPIQGHRVEVKKAVPKEDIYSGGGGGGSRSSRGGRGGRGRGGGRDQNGLSKGGGGGYNSYGGYGGGGGGGYNAYGGGGGGSSYGGSDYGNGFGGFGSYSQHQSSYGPMKSGGGGGGGGSSWGGRSNSGPYRGGYGGGGGYGGSSF [HNRNPA0]", "Result": 0.24}

* * *

Tested on: HeLa Kyoto
Experiment: melting temperature (median over replicates), in situ; higher = more thermally stable
Conditions: cell cycle stage: mitosis
# reported melting temperature; entries follow
Measurement Type: melting temperature (°C)

{"Sequence Entry": "MSGDSSGRGPEGRGRGRDPHRDRTRSRSRSRSPLSPRSRRGSARERREAPERPSLEDTEPSDSGDEMMDPASLEAEADQGLCRQIRHQYRALINSVQQNREDILNAGDKLTEVLEEANTLFNEVSRAREAVLDAHFLVLASDLGKEKAKQLRSDLSSFDMLRYVETLLTHMGVNPLEAEELIRDEDSPDFEFIVYDSWKITGRTAENTFNKTHTFHFLLGSIYGECPVPKPRVDRPRKVPVIQEERAMPAQLRRMEESHQEATEKEVERILGLLQTYFREDPDTPMSFFDFVVDPHSFPRTVENIFHVSFIIRDGFARIRLDQDRLPVIEPVSINEENEGFEHNTQVRNQGIIALSYRDWEEIVKTFEISEPVITPSQRQQKPSA [NSMCE4A]", "System Tested": "HeLa Kyoto", "Unit Annotation": "°C", "Numeric Readout": 50.2}
{"Sequence Entry": "MAGDVGGRSCTDSELLLHPELLSQEFLLLTLEQKNIAVETDVRVNKDSLTDLYVQHAIPLPQRDLPKNRWGKMMEKKREQHEIKNETKRSSTVDGLRKRPLIVFDGSSTSTSIKVKKTENGDNDRLKPPPQASFTSNAFRKLSNSSSSVSPLILSSNLPVNNKTEHNNNDAKQNHDLTHRKSPSGPVKSPPLSPVGTTPVKLKRAAPKEEAEAMNNLKPPQAKRKIQHVTWP [C2ORF49]", "System Tested": "HeLa Kyoto", "Unit Annotation": "°C", "Numeric Readout": 51.3}
{"Sequence Entry": "MGSSKKVTLSVLSREQSEGVGARVRRSIGRPELKNLDPFLLFDEFKGGRPGGFPDHPHRGFETVSYLLEGGSMAHEDFCGHTGKMNPGDLQWMTAGRGILHAEMPCSEEPAHGLQLWVNLRSSEKMVEPQYQELKSEEIPKPSKDGVTVAVISGEALGIKSKVYTRTPTLYLDFKLDPGAKHSQPIPKGWTSFIYTISGDVYIGPDDAQQKIEPHHTAVLGEGDSVQVENKDPKRSHFVLIAGEPLREPVIQHGPFVMNTNEEISQAILDFRNAKNGFERAKTWKSKIGN [PIR]", "System Tested": "HeLa Kyoto", "Unit Annotation": "°C", "Numeric Readout": 51.6}
{"Sequence Entry": "MAARVLRARGAAWAGGLLQRAAPCSLLPRLRTWTSSSNRSREDSWLKSLFVRKVDPRKDAHSNLLAKKETSNLYKLQFHNVKPECLEAYNKICQEVLPKIHEDKHYPCTLVGTWNTWYGEQDQAVHLWRYEGGYPALTEVMNKLRENKEFLEFRKARSDMLLSRKNQLLLEFSFWNEPVPRSGPNIYELRSYQLRPGTMIEWGNYWARAIRFRQDGNEAVGGFFSQIGQLYMVHHLWAYRDLQTREDIRNAAWHKHGWEELVYYTVPLIQEMESRIMIPLKTSPLQ [GBAS]", "System Tested": "HeLa Kyoto", "Unit Annotation": "°C", "Numeric Readout": 53.3}
{"Sequence Entry": "MASDEGKLFVGGLSFDTNEQSLEQVFSKYGQISEVVVVKDRETQRSRGFGFVTFENIDDAKDAMMAMNGKSVDGRQIRVDQAGKSSDNRSRGYRGGSAGGRGFFRGGRGRGRGFSRGGGDRGYGGNRFESRSGGYGGSRDYYSSRSQSGGYSDRSSGGSYRDSYDSYATHNE [CIRBP]", "System Tested": "HeLa Kyoto", "Unit Annotation": "°C", "Numeric Readout": 53}
{"Sequence Entry": "MFRRKLTALDYHNPAGFNCKDETEFRNFIVWLEDQKIRHYKIEDRGNLRNIHSSDWPKFFEKYLRDVNCPFKIQDRQEAIDWLLGLAVRLEYGDNAEKYKDLVPDNSKTADNATKNAEPLINLDVNNPDFKAGVMALANLLQIQRHDDYLVMLKAIRILVQERLTQDAVAKANQTKEGLPVALDKHILGFDTGDAVLNEAAQILRLLHIEELRELQTKINEAIVAVQAIIADPKTDHRLGKVGR [C14ORF166]", "System Tested": "HeLa Kyoto", "Unit Annotation": "°C", "Numeric Readout": 51.3}
